tested on: Shigella sp.
Below, each entry is listed with its recorded MIC.
The figure you give is taken to be in µg/mL; do not add the unit.

Illustrative cases are given below, each with its answer.
CNC(=O)N(C)C(=O)NC(C(=O)NC1C(=O)N2C(C(=O)O)=C(CSc3nnnn3C)CSC12)c1ccccc1 (stereo not drawn) : 3
CNC(=O)N(C)C(=O)NC(C(=O)NC1C(=O)N2C(C(=O)O)=C(CSc3nnnn3C)CSC12)c1ccc(O)cc1 (stereo not drawn) : 1
Cn1nnnc1SCC1=C(C(=O)O)N2C(=O)C(NC(=O)C(NC(=O)NC(=O)Nc3ccccc3)c3ccccc3)C2SC1 (stereo not drawn) : 4
CNC(=O)NC(=O)NC(C(=O)NC1C(=O)N2C(C(=O)O)=C(CSc3nnc(C)s3)CSC12)c1ccc(O)cc1 (stereo not drawn) : 5.5
CC(=O)OCC1=C(C(=O)O)N2C(=O)C(NC(=O)C(NC(=O)N3CCNC3=O)c3ccccc3)[C@H]2SC1 (stereo partly drawn) : 10

[in] Data request, read-out MIC, for Cn1nnnc1SCC1=C(C(=O)O)N2C(=O)C(NC(=O)C(NC(=O)N3CCNC3=O)c3ccccc3)[C@H]2SC1 (stereo partly drawn)
[out] 7

[in] Data request, read-out MIC, for CNC(=O)N(C)C(=O)NC(C(=O)NC1C(=O)N2C(C(=O)O)=C(COC(C)=O)CSC12)c1ccccc1 (stereo not drawn)
[out] 7

[in] Data request, read-out MIC, for CNC(=O)N(C)C(=O)NC(C(=O)NC1C(=O)N2C(C(=O)O)=C(CSc3nnc(C)s3)CSC12)c1ccc(O)cc1 (stereo not drawn)
[out] 3

[in] Data request, read-out MIC, for CNC(=O)NC(=O)NC(C(=O)NC1C(=O)N2C(C(=O)O)=C(CSc3nnnn3C)CSC12)c1ccccc1 (stereo not drawn)
[out] 4

[in] Data request, read-out MIC, for CNC(=O)N(C)C(=O)NC(C(=O)NC1C(=O)N2C(C(=O)O)=C(CSc3nnnn3C)CSC12)c1cccs1 (stereo not drawn)
[out] 1

[in] Data request, read-out MIC, for CNC(=O)NC(=O)NC(C(=O)NC1C(=O)N2C(C(=O)O)=C(CSc3nnnn3C)CSC12)c1cccs1 (stereo not drawn)
[out] 3

[in] Data request, read-out MIC, for Cn1nnnc1SCC1=C(C(=O)O)N2C(=O)C(NC(=O)C(NC(=O)NC(N)=O)c3ccccc3)C2SC1 (stereo not drawn)
[out] 9.5

----------
system: V41; experiment: Gradient Plate in vitro method, MIC; assay type: cell-based, penicillin resistant Staphyloccus; conditions: V41, penicillin resistant Staphylococcus, read-out: Minimum Inhibitory Concentration
measurement_kind: MIC (µg/mL)
The figure you give is taken to be in µg/mL; do not add the unit.

Cn1nnnc1SCC1=C(C(=O)O)N2C(=O)C(NC(=O)C(NC(=O)N3CCNC3=O)c3ccccc3)[C@H]2SC1 (stereo partly shown) : 6
Cn1nnnc1SCC1=C(C(=O)O)N2C(=O)C(NC(=O)C(NC(=O)NC(=O)Nc3ccccc3)c3ccccc3)C2SC1 (stereo not shown) : 0.6
CNC(=O)NC(=O)NC(C(=O)NC1C(=O)N2C(C(=O)O)=C(CSc3nnnn3C)CSC12)c1ccccc1 (stereo not shown) : 2

[in] Lab note: need MIC with V41 for entry CNC(=O)N(C)C(=O)NC(C(=O)NC1C(=O)N2C(C(=O)O)=C(COC(C)=O)CSC12)c1ccccc1 (stereo not shown) , please look it up.
[out] 1

----------
assay: Electrometric titration in 66 percent DMF; assay type: physicochemical; details: 66% dmf, first of two titratable groups
measurement_kind: pKa

[in] Data request, read-out pKa, for CNC(=O)N(C)C(=O)NC(C(=O)NC1C(=O)N2C(C(=O)O)=C(CSc3nnc(C)s3)CSC12)c1ccc(O)cc1 (stereo not shown)
[out] 4.8

----------
Target or system Serratia marcescens; recorded quantity MIC.
The figure you give is taken to be in µg/mL; do not add the unit.

Cn1nnnc1SCC1=C(C(=O)O)N2C(=O)C(NC(=O)C(NC(=O)NC(=O)Nc3ccccc3)c3ccccc3)C2SC1 (centres unmarked) : 24
CNC(=O)N(C)C(=O)NC(C(=O)NC1C(=O)N2C(C(=O)O)=C(CSc3nnnn3C)CSC12)c1cccs1 (centres unmarked) : 19.5
CNC(=O)N(C)C(=O)NC(C(=O)NC1C(=O)N2C(C(=O)O)=C(COC(C)=O)CSC12)c1ccccc1 (centres unmarked) : 80
CNC(=O)N(C)C(=O)NC(C(=O)NC1C(=O)N2C(C(=O)O)=C(CSc3nnnn3C)CSC12)c1ccc(O)cc1 (centres unmarked) : 8

Proceeding to the next compound to report its MIC.
[in] Data request, read-out MIC, for CNC(=O)N(C)C(=O)NC(C(=O)NC1C(=O)N2C(C(=O)O)=C(CSc3nnc(C)s3)CSC12)c1ccc(O)cc1 (centres unmarked)
[out] 19

----------
Below, each entry is listed with its recorded MIC.
system: Pseudomonas aeruginosa; assay: Gradient Plate in vitro method, MIC; type: cell-based; conditions: read-out: Minimum Inhibitory Concentration
The figure you give is taken to be in µg/mL; do not add the unit.

Illustrative cases are given below, each with its answer.
CNC(=O)N(C)C(=O)NC(C(=O)NC1C(=O)N2C(C(=O)O)=C(COC(C)=O)CSC12)c1ccccc1 (stereo not shown) : 80
CNC(=O)N(C)C(=O)NC(C(=O)NC1C(=O)N2C(C(=O)O)=C(CSc3nnnn3C)CSC12)c1cccs1 (stereo not shown) : 21.5
Cn1nnnc1SCC1=C(C(=O)O)N2C(=O)C(NC(=O)C(NC(=O)NC(N)=O)c3ccccc3)C2SC1 (stereo not shown) : 60

Proceeding to the next compound to report its MIC.
[in] Lab note: need MIC with Pseudomonas aeruginosa for entry CC(=O)OCC1=C(C(=O)O)N2C(=O)C(NC(=O)C(NC(=O)N3CCNC3=O)c3ccccc3)[C@H]2SC1 (stereo partly shown) , please look it up.
[out] 24

----------
Below, each entry is listed with its recorded MIC.
test system: Aerobacter aerogenes
The figure you give is taken to be in µg/mL; do not add the unit.

Illustrative cases are given below, each with its answer.
CNC(=O)N(C)C(=O)NC(C(=O)NC1C(=O)N2C(C(=O)O)=C(CSc3nnc(C)s3)CSC12)c1ccc(O)cc1 (centres unmarked) : 4
CC(=O)OCC1=C(C(=O)O)N2C(=O)C(NC(=O)C(NC(=O)N3CCNC3=O)c3ccccc3)[C@H]2SC1 (some centres unmarked) : 10
CNC(=O)NC(=O)NC(C(=O)NC1C(=O)N2C(C(=O)O)=C(CSc3nnnn3C)CSC12)c1ccccc1 (centres unmarked) : 4.3

[in] Lab note: need MIC with Aerobacter aerogenes for entry CNC(=O)N(C)C(=O)NC(C(=O)NC1C(=O)N2C(C(=O)O)=C(CSc3nnnn3C)CSC12)c1ccccc1 (centres unmarked) , please look it up.
[out] 3

[in] Lab note: need MIC with Aerobacter aerogenes for entry CNC(=O)N(C)C(=O)NC(C(=O)NC1C(=O)N2C(C(=O)O)=C(CSc3nnnn3C)CSC12)c1cccs1 (centres unmarked) , please look it up.
[out] 1

----------
tested on: Aerobacter aerogenes; experiment: Gradient Plate in vitro method, MIC; assay type: cell-based; conditions: Klebsiella aerogenes, read-out: Minimum Inhibitory Concentration
Below, each entry is listed with its recorded MIC.

Illustrative cases are given below, each with its answer.
Cn1nnnc1SCC1=C(C(=O)O)N2C(=O)C(NC(=O)C(NC(=O)N3CCNC3=O)c3ccccc3)[C@H]2SC1 (stereo partly shown) : 12 µg/mL
Cn1nnnc1SCC1=C(C(=O)O)N2C(=O)C(NC(=O)C(NC(=O)NC(N)=O)c3ccccc3)C2SC1 (stereo not shown) : 15 µg/mL
CNC(=O)NC(=O)NC(C(=O)NC1C(=O)N2C(C(=O)O)=C(CSc3nnc(C)s3)CSC12)c1ccc(O)cc1 (stereo not shown) : 15.5 µg/mL

[in] Data request, read-out MIC, for CNC(=O)N(C)C(=O)NC(C(=O)NC1C(=O)N2C(C(=O)O)=C(CSc3nnnn3C)CSC12)c1ccc(O)cc1 (stereo not shown)
[out] 1 µg/mL

[in] Data request, read-out MIC, for Cn1nnnc1SCC1=C(C(=O)O)N2C(=O)C(NC(=O)C(NC(=O)NC(=O)Nc3ccccc3)c3ccccc3)C2SC1 (stereo not shown)
[out] 15.5 µg/mL

[in] Data request, read-out MIC, for CNC(=O)NC(=O)NC(C(=O)NC1C(=O)N2C(C(=O)O)=C(CSc3nnnn3C)CSC12)c1cccs1 (stereo not shown)
[out] 4.3 µg/mL

[in] Data request, read-out MIC, for CNC(=O)N(C)C(=O)NC(C(=O)NC1C(=O)N2C(C(=O)O)=C(COC(C)=O)CSC12)c1ccccc1 (stereo not shown)
[out] 14 µg/mL

----------
test system: Pseudomonas aeruginosa; experiment: Gradient Plate in vitro method, MIC; type: cell-based; conditions: read-out: Minimum Inhibitory Concentration
We label by threshold. Values of MIC strictly beneath 20 µg/mL are True. Values of 20 µg/mL and up are False.

Study these solved cases before continuing.
CNC(=O)N(C)C(=O)NC(C(=O)NC1C(=O)N2C(C(=O)O)=C(CSc3nnnn3C)CSC12)c1ccccc1 (centres unmarked) : False
CNC(=O)N(C)C(=O)NC(C(=O)NC1C(=O)N2C(C(=O)O)=C(CSc3nnc(C)s3)CSC12)c1ccc(O)cc1 (centres unmarked) : False
Cn1nnnc1SCC1=C(C(=O)O)N2C(=O)C(NC(=O)C(NC(=O)N3CCNC3=O)c3ccccc3)[C@H]2SC1 (some centres unmarked) : False

[in] Determine if CNC(=O)NC(=O)NC(C(=O)NC1C(=O)N2C(C(=O)O)=C(CSc3nnnn3C)CSC12)c1cccs1 (centres unmarked) shows MIC strictly lower than 20 µg/mL.
[out] True

[in] Determine if CNC(=O)N(C)C(=O)NC(C(=O)NC1C(=O)N2C(C(=O)O)=C(CSc3nnnn3C)CSC12)c1ccc(O)cc1 (centres unmarked) shows MIC strictly lower than 20 µg/mL.
[out] True

[in] Determine if CNC(=O)NC(=O)NC(C(=O)NC1C(=O)N2C(C(=O)O)=C(CSc3nnnn3C)CSC12)c1ccccc1 (centres unmarked) shows MIC strictly lower than 20 µg/mL.
[out] False
